ASSAYED_TARGET: ΔF508-NBD1 (CFTR nucleotide binding domain 1) (Homo sapiens, UniProt P13569, F494N/DEL508-508)
ASSAY_PROCEDURE: SPR
pKd: −log10 of the molar value.
MEASUREMENT_KIND: pKd

Recorded result, `O=C(O)Cc1c(Br)[nH]c2ccccc12` , pKd: < 3.00
